# Test system: MCF10A
# experiment.notes: percent viability (nuclei count relative to siNT); higher = more viable cells
# run.conditions: 20 nM; 72 h
test.readout: percent viability (%)

[[record]]
record_sequence = "AAAAGUAAUUGCGGUUUUUGCC [hsa-miR-548c-5p]"
test_readout = "percent viability"
test_value = 166

[[record]]
record_sequence = "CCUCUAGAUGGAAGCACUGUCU [hsa-miR-517-5p]"
test_readout = "percent viability"
test_value = 56

[[record]]
record_sequence = "ACUGAAUCCUCUUUUCCUCAG [hsa-miR-5187-3p]"
test_readout = "percent viability"
test_value = 67.9

[[record]]
record_sequence = "UAAUGCAUUAAAUUAUUGAAGG [hsa-miR-5700]"
test_readout = "percent viability"
test_value = 125

[[record]]
record_sequence = "UGGGAAAGACAAACUCAGAGUU [hsa-miR-6733-5p]"
test_readout = "percent viability"
test_value = 23.6

[[record]]
record_sequence = "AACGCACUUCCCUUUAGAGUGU [hsa-miR-521]"
test_readout = "percent viability"
test_value = 57.9

[[record]]
record_sequence = "UCCCUACCCCUCCACUCCCCA [hsa-miR-3162-3p]"
test_readout = "percent viability"
test_value = 75.9

[[record]]
record_sequence = "UUGUUCUUUGGUCUUUCAGCCA [hsa-miR-4677-5p]"
test_readout = "percent viability"
test_value = 42.5

[[record]]
record_sequence = "UGAGGGUGUCAGCAGGUGACG [hsa-miR-6804-5p]"
test_readout = "percent viability"
test_value = 11.7

[[record]]
record_sequence = "CACAUGGCCGAAACAGAGAAGU [hsa-miR-942-3p]"
test_readout = "percent viability"
test_value = 32.7

[[record]]
record_sequence = "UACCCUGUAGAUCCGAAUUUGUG [hsa-miR-10a-5p]"
test_readout = "percent viability"
test_value = 39.9

[[record]]
record_sequence = "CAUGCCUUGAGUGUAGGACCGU [hsa-miR-532-5p]"
test_readout = "percent viability"
test_value = 19.5

[[record]]
record_sequence = "UAGGUAGUUUCCUGUUGUUGGG [hsa-miR-196b-5p]"
test_readout = "percent viability"
test_value = 41.4

[[record]]
record_sequence = "UGAGGAGAUGCUGGGACUGA [hsa-miR-4784]"
test_readout = "percent viability"
test_value = 56.7

[[record]]
record_sequence = "UGCCCUAAAUGCCCCUUCUGGC [hsa-miR-18b-3p]"
test_readout = "percent viability"
test_value = 98.8

[[record]]
record_sequence = "UAGGACACAUGGUCUACUUCU [hsa-miR-1197]"
test_readout = "percent viability"
test_value = 61.7

[[record]]
record_sequence = "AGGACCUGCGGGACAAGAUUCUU [hsa-miR-492]"
test_readout = "percent viability"
test_value = 49

[[record]]
record_sequence = "AGUUAGGAUUAGGUCGUGGAA [hsa-miR-1258]"
test_readout = "percent viability"
test_value = 37.3

[[record]]
record_sequence = "UUUCUCUCUCCACUUCCUCAG [hsa-miR-6833-3p]"
test_readout = "percent viability"
test_value = 28.4

[[record]]
record_sequence = "UGAGAACCACGUCUGCUCUGAG [hsa-miR-589-5p]"
test_readout = "percent viability"
test_value = 88.9

[[record]]
record_sequence = "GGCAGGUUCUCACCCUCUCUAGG [hsa-miR-657]"
test_readout = "percent viability"
test_value = 44.7

[[record]]
record_sequence = "ACUGGGCUUGGAGUCAGAAG [hsa-miR-378g]"
test_readout = "percent viability"
test_value = 16.8

[[record]]
record_sequence = "AAAGAUGGACAAUUGGCUAAAU [hsa-miR-4662b]"
test_readout = "percent viability"
test_value = 38.3

[[record]]
record_sequence = "AAUUCCCUUGUAGAUAACCCGG [hsa-miR-3938]"
test_readout = "percent viability"
test_value = 129


* * *

Reported values of 5+ nucleoli phenotype percent effect for individual entries
# Tested on: MCF10A
# experiment.notes: 5+ nucleoli phenotype percent effect (relative to siNT 0% and siKIF11 100%); higher = more cells with five or more nucleoli
# run.conditions: 20 nM; 72 h
test.readout: 5+ nucleoli phenotype percent effect (%)

[[record]]
record_sequence = "AAAGACCCAUUGAGGAGAAGGU [hsa-miR-3667-5p]"
test_readout = "5+ nucleoli phenotype percent effect"
readout_units = "%"
test_value = -13.6

[[record]]
record_sequence = "UUCGGUAUACUUUGUGAAUUGG [hsa-miR-4798-5p]"
test_readout = "5+ nucleoli phenotype percent effect"
readout_units = "%"
test_value = -0.701

[[record]]
record_sequence = "UUCAUUCGGCUGUCCAGAUGUA [hsa-miR-1298]"
test_readout = "5+ nucleoli phenotype percent effect"
readout_units = "%"
test_value = 33.4

[[record]]
record_sequence = "GGAUCCGAGUCACGGCACCA [hsa-miR-4454]"
test_readout = "5+ nucleoli phenotype percent effect"
readout_units = "%"
test_value = 0.148

[[record]]
record_sequence = "UAAGUGCUUCCAUGCUU [hsa-miR-302e]"
test_readout = "5+ nucleoli phenotype percent effect"
readout_units = "%"
test_value = 65.3

[[record]]
record_sequence = "UAAAUAGAGUAGGCAAAGGACA [hsa-miR-3121-3p]"
test_readout = "5+ nucleoli phenotype percent effect"
readout_units = "%"
test_value = 15.6

[[record]]
record_sequence = "CAACCACCACUGUCUCUCCCCAG [hsa-miR-6776-3p]"
test_readout = "5+ nucleoli phenotype percent effect"
readout_units = "%"
test_value = 48.4

[[record]]
record_sequence = "UCUCUCGGCUCCUCGCGGCUC [hsa-miR-3615]"
test_readout = "5+ nucleoli phenotype percent effect"
readout_units = "%"
test_value = 27.8

[[record]]
record_sequence = "GACUCACUCACAGGAUUGUGCA [hsa-miR-3680-5p]"
test_readout = "5+ nucleoli phenotype percent effect"
readout_units = "%"
test_value = 39.7

[[record]]
record_sequence = "CUGUACAGCCUCCUAGCUUUCC [hsa-let-7a-2-3p]"
test_readout = "5+ nucleoli phenotype percent effect"
readout_units = "%"
test_value = -34.3

[[record]]
record_sequence = "UGAGAACUGACAAAUGUGGUAGG [hsa-miR-7153-5p]"
test_readout = "5+ nucleoli phenotype percent effect"
readout_units = "%"
test_value = 14

[[record]]
record_sequence = "ACUGAUUAUCUUAACUCUCUGA [hsa-miR-3920]"
test_readout = "5+ nucleoli phenotype percent effect"
readout_units = "%"
test_value = 38.1

[[record]]
record_sequence = "UUGGGAUGGUAGGACCAGAGGGG [hsa-miR-6728-5p]"
test_readout = "5+ nucleoli phenotype percent effect"
readout_units = "%"
test_value = 24.3

[[record]]
record_sequence = "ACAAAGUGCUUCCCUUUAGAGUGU [hsa-miR-520g]"
test_readout = "5+ nucleoli phenotype percent effect"
readout_units = "%"
test_value = 24.4

[[record]]
record_sequence = "UUUAAGAAAACACCAUGGAGAU [hsa-miR-3658]"
test_readout = "5+ nucleoli phenotype percent effect"
readout_units = "%"
test_value = 18.1

[[record]]
record_sequence = "ACCUUGCCUUGCUGCCCGGGCC [hsa-miR-1915-5p]"
test_readout = "5+ nucleoli phenotype percent effect"
readout_units = "%"
test_value = -40.4

[[record]]
record_sequence = "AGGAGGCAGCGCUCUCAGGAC [hsa-miR-650]"
test_readout = "5+ nucleoli phenotype percent effect"
readout_units = "%"
test_value = -3.4

[[record]]
record_sequence = "UGAGGGUGUCAGCAGGUGACG [hsa-miR-6804-5p]"
test_readout = "5+ nucleoli phenotype percent effect"
readout_units = "%"
test_value = 0.774

[[record]]
record_sequence = "CGGCUGGAGGUGUGAGGA [hsa-miR-3652]"
test_readout = "5+ nucleoli phenotype percent effect"
readout_units = "%"
test_value = -23.6

[[record]]
record_sequence = "GUGAAUUACCGAAGGGCCAUAA [hsa-miR-183-3p]"
test_readout = "5+ nucleoli phenotype percent effect"
readout_units = "%"
test_value = -32

[[record]]
record_sequence = "UGAGGUGACCGCAGAUGGGAA [hsa-miR-7854-3p]"
test_readout = "5+ nucleoli phenotype percent effect"
readout_units = "%"
test_value = -6.86

[[record]]
record_sequence = "AUGGAGAAGGCUUCUGA [hsa-miR-4531]"
test_readout = "5+ nucleoli phenotype percent effect"
readout_units = "%"
test_value = -33.8

[[record]]
record_sequence = "UUGGGGAAACGGCCGCUGAGUG [hsa-miR-2110]"
test_readout = "5+ nucleoli phenotype percent effect"
readout_units = "%"
test_value = -27.7


* * *

Reported values of 5+ nucleoli phenotype percent effect for individual entries
# Test system: MCF10A
# experiment.notes: 5+ nucleoli phenotype percent effect (relative to siNT 0% and siKIF11 100%); higher = more cells with five or more nucleoli
# run.conditions: 20 nM; 72 h
test.readout: 5+ nucleoli phenotype percent effect (%)

[[record]]
record_sequence = "GGUGGGCUUCCCGGAGGG [hsa-miR-4417]"
test_value = 35.5

[[record]]
record_sequence = "ACAUUUUCCAGCCCAUUCA [hsa-miR-1250-3p]"
test_value = -18.3

[[record]]
record_sequence = "CGGGGUUUUGAGGGCGAGAUGA [hsa-miR-193b-5p]"
test_value = -32.1

[[record]]
record_sequence = "UUCAUUUGGUAUAAACCGCGAUU [hsa-miR-579]"
test_value = -37.2

[[record]]
record_sequence = "UCAACAAAAUCACUGAUGCUGGA [hsa-miR-3065-5p]"
test_value = 38.2

[[record]]
record_sequence = "ACCAGGAGGCUGAGGCCCCU [hsa-miR-665]"
test_value = -29.1

[[record]]
record_sequence = "ACUCGGCGUGGCGUCGGUCGUG [hsa-miR-1307-3p]"
test_value = -50.5

[[record]]
record_sequence = "UCUGGCUAUCUCACGAGACUGU [hsa-miR-4794]"
test_value = 3.59

[[record]]
record_sequence = "AGACUGACGGCUGGAGGCCCAU [hsa-miR-4513]"
test_value = 21.1

[[record]]
record_sequence = "UGAGGCUAAUGCACUACUUCAC [hsa-miR-3975]"
test_value = -22.7

[[record]]
record_sequence = "UGGUGGGCACAGAAUCUGGACU [hsa-miR-541-3p]"
test_value = -0.0057

[[record]]
record_sequence = "AGAAUUGCGUUUGGACAAUCAGU [hsa-miR-2964a-3p]"
test_value = -29.2

[[record]]
record_sequence = "ACUCCAAGAAGAAUCUAGACAG [hsa-miR-5695]"
test_value = 39.3

[[record]]
record_sequence = "AGAGCAGAAGGAUGAGAU [hsa-miR-4468]"
test_value = -43.6

[[record]]
record_sequence = "GAAGUGUGCCGUGGUGUGUCU [hsa-miR-595]"
test_value = -22

[[record]]
record_sequence = "UUCUCGAGGAAAGAAGCACUUUC [hsa-miR-516a-5p]"
test_value = 22.1

[[record]]
record_sequence = "CGCAGGGCCCUGGCGCAGGCAU [hsa-miR-6836-5p]"
test_value = -6.59

[[record]]
record_sequence = "UGGUCUGCAAAGAGAUGACUGU [hsa-miR-4527]"
test_value = -39.4

[[record]]
record_sequence = "GGCGGGUGCGGGGGUGG [hsa-miR-3656]"
test_value = 37.2

[[record]]
record_sequence = "UGCACGGCACUGGGGACACGU [hsa-miR-3177-3p]"
test_value = -18

[[record]]
record_sequence = "UGAGGAGAUCGUCGAGGUUGG [hsa-miR-3150b-3p]"
test_value = 24.3

[[record]]
record_sequence = "AAGGUAUUGUUCAGACUUAUGA [hsa-miR-4678]"
test_value = -18

[[record]]
record_sequence = "CCUGUGCUCCCAGGGCCUCGC [hsa-miR-5008-3p]"
test_value = 24

[[record]]
record_sequence = "UUUAGUGUGAUAAUGGCGUUUGA [hsa-miR-3591-5p]"
test_value = 0.56

[[record]]
record_sequence = "UUGGGCUGGGCUGGGUUGGG [hsa-miR-1587]"
test_value = -22.5


These measurements were taken from the supplement of paper PMC10899765.
